target: cannabinoid CB1 receptor (Mus musculus); construct: gene Cnr1; mouse CB1 cDNA expressed in HEK293 cells; assay: cell-based; set-up: species or system HEK293; settings: pEC50 ± SEM (n) / CP 55940, B=Gi1; G protein BRET sensor (Gi1 or GoA), transfected HEK293
Sequence (P47746 whole entry): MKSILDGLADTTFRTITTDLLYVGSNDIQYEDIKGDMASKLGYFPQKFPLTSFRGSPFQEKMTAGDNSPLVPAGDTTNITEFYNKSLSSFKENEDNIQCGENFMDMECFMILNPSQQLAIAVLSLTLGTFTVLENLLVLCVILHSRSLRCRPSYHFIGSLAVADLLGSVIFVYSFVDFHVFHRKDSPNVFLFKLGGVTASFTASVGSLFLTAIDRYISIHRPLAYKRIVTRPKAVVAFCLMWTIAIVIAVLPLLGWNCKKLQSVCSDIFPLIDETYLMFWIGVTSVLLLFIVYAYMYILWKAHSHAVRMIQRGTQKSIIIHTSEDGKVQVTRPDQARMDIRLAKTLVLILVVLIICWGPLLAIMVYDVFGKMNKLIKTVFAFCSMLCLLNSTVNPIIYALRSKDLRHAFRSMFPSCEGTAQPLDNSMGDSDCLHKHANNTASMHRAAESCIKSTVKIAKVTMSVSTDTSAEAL
measured property: pEC50
# reply with the number alone; pEC50 is -log10 of concentration in mol/L

Kindly note the recorded pEC50 for CCCCCCC(C)(C)c1ccc([C@@H]2C[C@H](O)CC[C@H]2CCCO)c(O)c1 [CP 55940] , which is 6.90

====

biological target: endogenous cannabinoid CB1 receptor in CGNs (Mus musculus); construct: gene Cnr1; native receptor, primary cerebellar granule neurons; experiment: cell-based; design: species or system mouse primary cerebellar granule neurons (CGNs); details: pEC50 ± SEM (n) / CP 55940, B=GoA; G protein BRET sensor (Gi1 or GoA), CGNs
Sequence (P47746 whole entry): as the sequence (P47746 whole entry) above
measured property: EC50

Kindly note the recorded EC50 for CCCCCCC(C)(C)c1ccc([C@@H]2C[C@H](O)CC[C@H]2CCCO)c(O)c1 , which is 55 nM

====

biological target: endogenous GABAB receptor in CGNs (Mus musculus); construct: gene Gabbr1; native receptor, primary cerebellar granule neurons; experiment: cell-based; set-up: species or system primary cerebellar granule neurons (CGNs); details: GoA sensor; with 20 uM baclofen
Sequence (Q9WV18 whole entry): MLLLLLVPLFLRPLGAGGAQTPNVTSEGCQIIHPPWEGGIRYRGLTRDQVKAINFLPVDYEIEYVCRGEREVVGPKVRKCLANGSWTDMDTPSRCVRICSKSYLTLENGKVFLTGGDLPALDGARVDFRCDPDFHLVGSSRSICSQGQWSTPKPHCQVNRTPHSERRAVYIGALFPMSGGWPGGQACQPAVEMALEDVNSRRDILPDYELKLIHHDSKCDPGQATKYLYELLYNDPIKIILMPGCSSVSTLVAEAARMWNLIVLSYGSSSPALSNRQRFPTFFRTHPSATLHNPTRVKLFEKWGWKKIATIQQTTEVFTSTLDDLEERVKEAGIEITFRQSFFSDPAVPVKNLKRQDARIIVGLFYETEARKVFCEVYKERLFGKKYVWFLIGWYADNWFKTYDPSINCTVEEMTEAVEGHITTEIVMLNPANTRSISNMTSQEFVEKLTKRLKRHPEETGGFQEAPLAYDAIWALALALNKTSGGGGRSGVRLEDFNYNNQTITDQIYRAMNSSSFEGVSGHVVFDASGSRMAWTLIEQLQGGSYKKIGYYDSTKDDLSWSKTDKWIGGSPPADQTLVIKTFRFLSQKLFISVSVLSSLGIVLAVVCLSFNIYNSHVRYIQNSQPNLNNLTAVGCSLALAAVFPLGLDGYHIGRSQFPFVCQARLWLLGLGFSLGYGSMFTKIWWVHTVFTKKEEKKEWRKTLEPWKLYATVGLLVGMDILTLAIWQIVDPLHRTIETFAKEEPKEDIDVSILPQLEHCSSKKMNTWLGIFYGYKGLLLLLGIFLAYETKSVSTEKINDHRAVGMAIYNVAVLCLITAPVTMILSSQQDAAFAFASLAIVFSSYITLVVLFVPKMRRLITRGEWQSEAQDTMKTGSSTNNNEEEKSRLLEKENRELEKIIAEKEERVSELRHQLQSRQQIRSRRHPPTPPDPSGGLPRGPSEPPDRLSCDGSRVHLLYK
Sequence (Q80T41 whole entry partner): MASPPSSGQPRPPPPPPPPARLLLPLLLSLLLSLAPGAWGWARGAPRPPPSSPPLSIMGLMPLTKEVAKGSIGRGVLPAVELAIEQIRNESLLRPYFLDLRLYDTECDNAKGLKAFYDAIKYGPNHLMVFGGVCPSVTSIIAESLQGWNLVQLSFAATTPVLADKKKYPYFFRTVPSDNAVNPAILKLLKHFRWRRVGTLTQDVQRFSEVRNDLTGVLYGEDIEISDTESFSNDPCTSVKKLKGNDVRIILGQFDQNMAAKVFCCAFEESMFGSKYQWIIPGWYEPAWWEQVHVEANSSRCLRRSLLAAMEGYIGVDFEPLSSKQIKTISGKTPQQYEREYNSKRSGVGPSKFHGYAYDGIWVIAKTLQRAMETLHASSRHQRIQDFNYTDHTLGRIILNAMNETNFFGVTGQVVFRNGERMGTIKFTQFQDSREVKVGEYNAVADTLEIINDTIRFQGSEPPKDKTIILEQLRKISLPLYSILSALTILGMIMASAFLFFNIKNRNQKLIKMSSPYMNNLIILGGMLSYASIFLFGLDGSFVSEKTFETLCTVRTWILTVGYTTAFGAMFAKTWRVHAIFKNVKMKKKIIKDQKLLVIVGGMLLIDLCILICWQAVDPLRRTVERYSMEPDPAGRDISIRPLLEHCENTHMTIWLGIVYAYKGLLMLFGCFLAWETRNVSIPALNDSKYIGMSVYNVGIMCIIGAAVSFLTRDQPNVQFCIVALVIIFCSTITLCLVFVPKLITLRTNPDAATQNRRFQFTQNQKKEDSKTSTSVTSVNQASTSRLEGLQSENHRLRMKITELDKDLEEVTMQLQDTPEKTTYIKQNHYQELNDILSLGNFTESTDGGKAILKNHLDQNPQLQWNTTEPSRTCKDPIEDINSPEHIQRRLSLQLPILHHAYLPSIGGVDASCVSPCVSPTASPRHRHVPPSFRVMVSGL
measured property: pIC50
# reply with the number alone; pIC50 is -log10 of concentration in mol/L

Kindly note the recorded pIC50 for C[C@@H](NC[C@H](O)CP(=O)(O)CCCCCNC(=O)CCc1ccc(O)c(I)c1)c1cccc(C(=O)O)c1 , which is 7.59
